Measured MRT inf, listed per entry for reference.
- details: male, Sprague-Dawley, rat, serum, po, 3 g/kg
Numbers only; they are read as h.

1. COc1ccc2c(c1O)-c1c(O)c(OC)cc3c1[C@H](C2)[N+](C)(C)CC3 ... 26.2

Pending molecule:
Consider the molecule "O=c1ccc2cc3ccoc3cc2o1" and give its measured MRT inf.
8.4

----------
- protocol-description: in vivo
- details: male, Sprague-Dawley, rat, po, 3 g/kg
reported-endpoint: AUC(0-t)
Field: value (include unit after the number)

Which AUC(0-t) is reported for this compound? C=C[C@H]1[C@H](O[C@@H]2O[C@H](CO)[C@@H](O)[C@H](O)[C@H]2O)OC=C2C(=O)OCC[C@H]21 [Sweroside, sweroside]
313 ng·h/mL

----------
- protocol-description: in vivo
- details: male, Sprague-Dawley, rat, po, 12 g/kg
reported-endpoint: Cmax (ng/mL)
Output spec: scalar in ng/mL, unitless text.

Fill in: Cmax of C=C[C@H]1[C@H](O[C@@H]2O[C@H](CO)[C@@H](O)[C@H](O)[C@H]2O)OC=C2C(=O)OCC[C@H]21 [Sweroside, sweroside] is ___
301

----------
- details: male, Sprague-Dawley, rat, in vivo, po, 12 g/kg
reported-endpoint: MRT last (h)
State just the number; it will be interpreted in h.

State the recorded MRT last for this entry: O=c1ccc2ccc3occc3c2o1 [Isopsoralen, isopsoralen]
13.3

----------
- protocol-description: in vivo
- details: male, Sprague-Dawley, rat, po, 3 g/kg
reported-endpoint: Cmax (ng/mL)
Give just the number in ng/mL; leave the unit off.

So what's the measured Cmax for this one? C=C[C@H]1[C@H](O[C@@H]2O[C@H](CO)[C@@H](O)[C@H](O)[C@H]2O)OC=C2C(=O)OCC[C@H]21 [Sweroside, sweroside]
35.6

----------
- protocol-description: in vivo
- details: male, Sprague-Dawley, rat, po, 12 g/kg
reported-endpoint: AUC(0-t) (ng·h/mL)
Entry rule: numbers only, all in ng·h/mL.

I am curious: what AUC(0-t) value has been reported for C=C[C@H]1[C@H](O[C@@H]2O[C@H](CO)[C@@H](O)[C@H](O)[C@H]2O)OC=C2C(=O)OCC[C@H]21 [Sweroside, sweroside] ?
1150

----------
# Cmax per entry
- details: male, Sprague-Dawley, rat, serum, po, 6 g/kg
Supply the numeric figure in ng/mL, leaving out any unit text.

# count of solved cases: 2
1) COc1ccc2c(c1O)-c1c(O)c(OC)cc3c1[C@H](C2)[N+](C)(C)CC3 ... 652
2) CC(C)=CCc1cc(-c2coc3cc(O)ccc3c2=O)ccc1O ... 10.7

We next turn to a different molecule, shown below.
Can you share its Cmax? I mean this molecule: "O=c1ccc2cc3ccoc3cc2o1"
1380

----------
- details: male, Sprague-Dawley, rat, in vivo, po, 3 g/kg
reported-endpoint: AUC(0-inf) (ng·h/mL)
Supply the numeric figure in ng·h/mL, leaving out any unit text.

Return reported AUC(0-inf); argument: O=c1ccc2ccc3occc3c2o1 [Isopsoralen, isopsoralen]
2470

----------
- protocol-description: in vivo
- details: male, Sprague-Dawley, rat, po, 3 g/kg
reported-endpoint: MRT inf

Which MRT inf reading was recorded for the compound C=C[C@H]1[C@H](O[C@@H]2O[C@H](CO)[C@@H](O)[C@H](O)[C@H]2O)OC=C2C(=O)OCC[C@H]21 [Sweroside, sweroside] ?
31.7 h

All figures here come from paper PMC6338342.
